# Tgt: T1, Flag-tagged ETS1_(331–441), P14921
# T1 chain: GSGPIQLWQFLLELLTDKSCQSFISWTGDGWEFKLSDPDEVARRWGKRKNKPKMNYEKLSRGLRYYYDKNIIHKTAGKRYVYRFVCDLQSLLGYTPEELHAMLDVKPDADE
# Assay Name: FLAG pull-down, band densitometry
# Stated Conditions: chain shown with the change;; parent: est. 1.0; read off a plot
Measured Metric: ratio to parent

Name the recorded ratio to parent for p52-RHD (residues 35–329), Q00653 R241A; M297A; K298A (protein) ADGPYLVIVEQPKQRGFRFRYGCEGPSHGGLPGASSEKGRKTYPTVKICNYEGPAKIEVDLVTHSDPPRAHAHSLVGKQCSELGICAVSVGPKDMTAQFNNLGVLHVTKKNMMGTMIQKLQRQRLRSRPQGLTEAEQRELEQEAKELKKVMDLSIVRLRFSAFLRASDGSFSLPLKPVISQPIHDSKSPGASNLKISRMDKTAGSVAGGDEVYLLCDKVQKDDIEVRFYEDDENGWQAFGDFSPTDVHKQYAIVFRTPPYHKAAIERPVTVFLQLKRKRGGDVSDSKQFTYYPLV .
0.26

Entry source: paper PMC6085347
